// provenance: patent US20250092056A1

Entries annotated with measured IC50
# measured target: Recombinant SARS-CoV-2 3CL Protease (Severe acute respiratory syndrome coronavirus 2 (2019-nCoV) (SARS-CoV-2), UniProt P0DTD1)
# assay info: biochemical
# Format: biochemical
# conditions used: 50% SARS-CoV-2 3CL protease inhibitory concentration; read-out: IC50
reported metric: IC50

>  <molecule>
N#CCn1c(N2CC(O)(C3CC3)C2)c(-c2ccc(F)c(Cl)c2)c(=O)n(-c2cncc(C(F)F)n2)c1=O

>  <result>
< 10 nM

$$$$
>  <molecule>
Cc1cncc(-n2c(=O)c(Cc3cc(F)c(F)c(F)c3)c(N3CCN(C)C(=O)C3)n(CC#N)c2=O)c1

>  <result>
< 10 nM

$$$$
>  <molecule>
N#CCn1c(N2CC3(C2)CC(F)(F)C3)c(-c2ccc(F)c(Cl)c2)c(=O)n(-c2cncc(C(F)(F)F)n2)c1=O

>  <result>
< 10 nM

$$$$
>  <molecule>
Cn1cnc(Cn2c(=O)c(Cc3cc(F)c(F)c(F)c3)c(-c3cc4ccccc4s3)n(CC#N)c2=O)n1

>  <result>
> 100 nM

$$$$
>  <molecule>
Cc1cncc(-n2c(=O)c(Cc3cc(F)c(F)c(F)c3)c(N3CCC(C(F)(F)F)CC3)n(CC#N)c2=O)c1

>  <result>
< 10 nM

$$$$
>  <molecule>
N#CCn1c(N2CCC2)c(-c2ccc(F)c(Cl)c2)c(=O)n(-c2cncc(Cl)c2)c1=O

>  <result>
< 10 nM

$$$$
>  <molecule>
CC1(C)CCN(c2c(-c3cccc(C#N)c3)c(=O)n(-c3cncc(Cl)c3)c(=O)n2CC#N)CC1

>  <result>
< 10 nM

$$$$
>  <molecule>
CCCNC(=O)c1c(-c2ccc(F)c(Cl)c2)c(=O)n(-c2cncc(Cl)c2)c(=O)n1CC#N

>  <result>
> 100 nM

$$$$
>  <molecule>
N#CCn1c(N2CC[C@@](O)(C3CC3)C2)c(-c2ccc(F)c(Cl)c2)c(=O)n(-c2cncc(Cl)c2)c1=O (single isomer, unassigned)

>  <result>
< 10 nM

$$$$
>  <molecule>
N#CCn1c(N2CC(C(F)(F)F)C2)c(-c2ccc(F)c(Cl)c2)c(=O)n(-c2cnc3cc(Cl)ccn23)c1=O

>  <result>
10 to 100 nM

$$$$
>  <molecule>
N#CCn1c(N2CC3(CC3)C2)c(-c2ccc(F)c(Cl)c2)c(=O)n(-c2cncc(Cl)c2)c1=O

>  <result>
< 10 nM

$$$$
>  <molecule>
COc1ccc(Oc2c(Cc3cc(F)c(F)c(F)c3)c(=O)n(-c3cncc(C)c3)c(=O)n2CC#N)cc1

>  <result>
37 nM

$$$$
>  <molecule>
Cc1cncc(-n2c(=O)c(-c3cc(F)c(F)c(F)c3)c(/C=C/C(C)(C)O)n(CC#N)c2=O)c1

>  <result>
10 to 100 nM

$$$$
>  <molecule>
Cc1cncc(-n2c(=O)c(-c3ccc(F)c(Cl)c3)c(-c3nc4ccccc4s3)n(CC#N)c2=O)c1

>  <result>
< 10 nM

$$$$

====

# measured target: Recombinant SARS-CoV-2 3CL Protease (Severe acute respiratory syndrome coronavirus 2 (2019-nCoV) (SARS-CoV-2))
# assay info: biochemical
# Type: biochemical
# conditions used: 50% SARS-CoV-2 3CL protease inhibitory concentration; read-out: IC50
reported metric: IC50

>  <compound>
N#CCn1c(CCC2(O)CCC2)c(-c2ccc(F)c(C(F)F)c2)c(=O)n(-c2cncc(Cl)c2)c1=O [Compound I-425]

>  <result>
< 10 nM

$$$$
>  <compound>
N#CCn1c(N2CCC3(CNC(=O)C3)C2)c(-c2ccc(F)c(Cl)c2)c(=O)n(-c2cncc(Cl)c2)c1=O (racemic) [Compound I-063]

>  <result>
< 10 nM

$$$$
>  <compound>
N#CCn1c(N2CC(O)(c3ncccn3)C2)c(-c2ccc(F)c(Cl)c2)c(=O)n(-c2cncc(OCF)c2)c1=O [Compound I-346]

>  <result>
< 10 nM

$$$$
>  <compound>
Cc1cnc(F)c(-n2c(=O)c(-c3ccc(F)c(Cl)c3)c(N3CC4(C3)CC(F)(F)C4)n(CC#N)c2=O)c1 [Compound I-255]

>  <result>
< 10 nM

$$$$
>  <compound>
CC(=O)Cn1c(C)c(-c2ccc(F)c(Cl)c2)c(=O)n(-c2cncc(Cl)c2)c1=O [Compound I-442]

>  <result>
10 to 100 nM

$$$$
>  <compound>
N#CCn1c(N2CC3(C2)CC(F)(F)C3)c(-c2ccc(F)c(Cl)c2)c(=O)n(CC#N)c1=O [Compound I-210]

>  <result>
> 100 nM

$$$$
>  <compound>
Cn1cnc(Cn2c(=O)c(Cc3cc(F)c(F)c(F)c3)c(N3Cc4ccccc4C3)n(CC#N)c2=O)n1 [Compound I-008]

>  <result>
> 100 nM

$$$$

====

# Tested on: SARS-CoV-2
# assay info: Cytopathic effect (CPE) suppression effect confirmation test using HEK293T/ACE2-TMPRSS2 cells
# Assay type: cell-based
# conditions used: Severe acute respiratory syndrome coronavirus 2, HEK-293T, 72 h, read-out: EC50 (50% SARS-CoV-2 infected cell death inhibitory concentration), class, HEK293T/ACE2-TMPRSS2 cells, CPE suppression, CellTiter-Glo 2.0 after 3 days culture
pEC50: −log10 of the molar value.
Reported values of pEC50 for individual entries
reported metric: pEC50

>  <query smiles>
CN1C[C@@H]2CN(c3c(Cc4cc(F)c(F)c(F)c4)c(=O)n(Cc4ncn(C)n4)c(=O)n3CC#N)C[C@@H]2C1

>  <result>
5.30 to 6.00

$$$$
>  <query smiles>
Cc1cncc(-n2c(=O)c(Cc3cc(F)c(F)c(F)c3)c(N3CCC(O)(C(F)(F)F)CC3)n(CC#N)c2=O)c1

>  <result>
> 7.00

$$$$
>  <query smiles>
Cc1cncc(-n2c(=O)c(Cc3cc(F)c(F)c(F)c3)c(-c3cc4ccccc4s3)n(CC#N)c2=O)c1

>  <result>
> 7.00

$$$$

====

# measured target: Recombinant SARS-CoV-2 3CL Protease (Severe acute respiratory syndrome coronavirus 2 (2019-nCoV) (SARS-CoV-2), UniProt P0DTD1)
# assay info: biochemical
# Type: biochemical
# conditions used: 50% SARS-CoV-2 3CL protease inhibitory concentration; read-out: IC50
pIC50: −log10 of the molar value.
Overview of recorded pIC50 for various molecules
reported metric: pIC50

>  <molecule>
N#CCn1c(N2CC3(CCOC3)C2)c(Cc2cc(F)c(F)c(F)c2)c(=O)n(CCC(N)=O)c1=O

>  <result>
< 7.00

$$$$
>  <molecule>
Cc1cncc(-n2c(=O)c(Cc3cc(F)c(F)c(F)c3)c(N3CCC(C(N)=O)C3)n(CC#N)c2=O)c1 (racemic)

>  <result>
> 8.00

$$$$
>  <molecule>
N#CCn1c(N2CC3(C2)CC(F)(F)C3)c(-c2cc(F)c(F)c(C#N)c2)c(=O)n(-c2cncc(Cl)c2)c1=O

>  <result>
> 8.00

$$$$
>  <molecule>
Cc1cc(-n2c(=O)c(-c3ccc(F)c(Cl)c3)c(N3CCC(C)(C)CC3)n(CC#N)c2=O)cc(=O)[nH]1

>  <result>
7.00 to 8.00

$$$$
>  <molecule>
COC1CCN(c2c(Cc3cc(F)c(F)c(F)c3)c(=O)n(-c3cncc(C)c3)c(=O)n2CC#N)CC1

>  <result>
> 8.00

$$$$
>  <molecule>
CC1(O)CN(c2c(-c3ccc(F)c(Cl)c3)c(=O)n(-c3cncc(OCF)n3)c(=O)n2CC#N)C1

>  <result>
> 8.00

$$$$
>  <molecule>
N#CCn1c(N2C[C@@H]3C[C@H]2CO3)c(-c2ccc(F)c(F)c2)c(=O)n(-c2cncc(Cl)c2)c1=O

>  <result>
> 8.00

$$$$
>  <molecule>
Cc1cc(-n2c(=O)c(Cc3cc(F)c(F)c(F)c3)c(N3Cc4ccccc4C3)n(CC#N)c2=O)cc(=O)[nH]1

>  <result>
7.00 to 8.00

$$$$
>  <molecule>
Cc1cncc(-n2c(=O)c(Cc3cc(F)c(F)c(F)c3)c(N3CC4(CCOCC4)C3)n(CC#N)c2=O)c1

>  <result>
7.00 to 8.00

$$$$
>  <molecule>
CC(C)(O)C1CN(c2c(-c3ccc(F)c(Cl)c3)c(=O)n(-c3cncc(Cl)c3)c(=O)n2CC#N)C1

>  <result>
9.18

$$$$
>  <molecule>
N#CCn1c(N2CC3(C2)CC(F)(F)C3)c(-c2ccc(F)c(F)c2)c(=O)n(-c2cncc(Cl)c2)c1=O

>  <result>
> 8.00

$$$$
>  <molecule>
N#CCn1c(N2CC3(CCOC3)C2)c(-c2cc(F)cc(Cl)c2)c(=O)n(-c2cncc(Cl)c2)c1=O

>  <result>
> 8.00

$$$$
>  <molecule>
Cc1c(-c2ccc(F)c(Cl)c2)c(=O)n(-c2cncc(Cl)c2)c(=O)n1CC(N)=O

>  <result>
7.00 to 8.00

$$$$
>  <molecule>
N#CCn1c(N2CCC(O)(C(F)(F)F)CC2)c(-c2ccc(F)c(Cl)c2)c(=O)n(-c2cnc3cc(F)ccn23)c1=O

>  <result>
> 8.00

$$$$
